- Test method notes: Liver microsome metabolic stability, MLM
- Type: in vitro ADME
- Test conditions: MLM (single value or second of two), percent remaining at 60 min, 1 μM compound, 0.25 mg/mL protein, 1 mM NADPH
Recorded Met Stab % (60 mins HLM/MLM) values for a group of compounds are listed next.
Property: Met Stab % (60 mins HLM/MLM) (%)

{"Compound": "FC(F)(F)c1ccc2cc(-c3coc(-c4ccco4)n3)oc2c1", "Number": 6}
{"Compound": "COc1ccccc1-c1ccc(-c2nc3ccccc3n2C)o1", "Number": 0}
{"Compound": "Cc1ccc2cc(-c3csc(-c4ccco4)n3)oc2c1", "Number": 1}
{"Compound": "Clc1ccc2cc(-c3coc(-c4ccco4)n3)oc2c1", "Number": 0}
{"Compound": "Clc1ccc2cc(-c3csc(-c4ccc[nH]4)n3)oc2c1", "Number": 21}
{"Compound": "Cn1c(-c2ccc(-c3ccccc3)o2)nc2ccc(Cl)cc21", "Number": 1}
{"Compound": "FC(F)(F)c1ccc2nc(-c3csc(C4=CCOCC4)n3)oc2c1", "Number": 24}
{"Compound": "O=[N+]([O-])c1ccc2nc(-c3csc(-c4ccco4)n3)[nH]c2c1", "Number": 2}
{"Compound": "FC(F)(F)c1ccc2cc(-c3csc(N4CCOCC4)n3)oc2c1", "Number": 25}
{"Compound": "COc1ccc2cc(-c3csc(-c4ccco4)n3)oc2c1", "Number": 1}
{"Compound": "Clc1ccc2cc(-c3nccc(-c4ccc[nH]4)n3)oc2c1", "Number": 1}
{"Compound": "Fc1sc(-c2ccco2)nc1-c1cc2ccc(C(F)(F)F)cc2o1", "Number": 1}
{"Compound": "FC(F)(F)c1ccc2cc(-c3csc(NC4CC4)n3)oc2c1", "Number": 2}
{"Compound": "CN1CCN(c2ccc(-c3nc4ccc(C(F)(F)F)cc4n3C)o2)CC1", "Number": 0}
{"Compound": "c1coc(-c2nc(-c3cc4ncccc4o3)cs2)c1", "Number": 0}
{"Compound": "FC(F)(F)c1ccc2cc(-c3csc(N4CCCC4)n3)oc2c1", "Number": 8}
{"Compound": "Clc1ccc2cc(-c3csc(-c4cc[nH]c4)n3)oc2c1", "Number": 18}
{"Compound": "FC(F)(F)c1ccc2cc(-c3csc(C4CCNCC4)n3)oc2c1", "Number": 65}
{"Compound": "Fc1ccc(-c2nc(-c3nc4ccc(C(F)(F)F)cc4o3)cs2)o1", "Number": 26}
{"Compound": "Clc1ccc2cc(-c3csc(-c4ncco4)n3)oc2c1", "Number": 28}
{"Compound": "c1ccc2oc(-c3csc(-c4ccoc4)n3)cc2c1", "Number": 1}
{"Compound": "Cn1c(-c2ccc(C3CCNCC3)o2)nc2ccc(C(F)(F)F)cc21", "Number": 100}
{"Compound": "c1coc(-c2nc(-c3coc4ccccc34)cs2)c1", "Number": 2}
{"Compound": "N#Cc1c(-c2csc(-c3ccco3)n2)oc2ccccc12", "Number": 0}
{"Compound": "c1ccc2c(c1)CCC2c1ccc(-c2nc3ccccc3s2)o1 (stereo not shown)", "Number": 44}
{"Compound": "Cn1c(-c2ccc(-c3ccccc3)o2)nc2ccc(S(N)(=O)=O)cc21", "Number": 53}
{"Compound": "FC(F)(F)c1ccc2cc(-c3csc(-c4ncco4)n3)oc2c1", "Number": 53}
{"Compound": "Cn1c(-c2ccc(-c3ccccc3F)o2)nc2c(F)cccc21", "Number": 0}
{"Compound": "c1ccc2c(-c3cnc(-c4ccoc4)s3)coc2c1", "Number": 1}
{"Compound": "Cc1c(-c2csc(-c3ccc[nH]3)n2)oc2cc(Cl)ccc12", "Number": 24}
{"Compound": "Clc1ccc2nc(-c3ccc(-c4ccccc4)o3)[nH]c2c1", "Number": 0}
{"Compound": "Oc1ccc2cc(-c3csc(-c4ccco4)n3)oc2c1", "Number": 3}
{"Compound": "CCn1c(-c2ccc(-c3ccccc3)o2)nc2ccccc21", "Number": 2}
{"Compound": "N#Cc1ccc2cc(-c3csc(-c4ccco4)n3)oc2c1", "Number": 0}
{"Compound": "Clc1ccc2cc(-c3cccc(-c4ccc[nH]4)n3)oc2c1", "Number": 21}
{"Compound": "Clc1ccc2cc(-c3csc(-c4ccoc4)n3)oc2c1", "Number": 1}
{"Compound": "FC(F)(F)c1ccc2cc(-c3csc(-c4ccc[nH]4)n3)oc2c1", "Number": 15}
{"Compound": "Cn1cccc1-c1nc(-c2cc3ccc(Cl)cc3o2)cs1", "Number": 23}
{"Compound": "FC(F)(F)c1ccc2cc(-c3csc(-c4ccco4)n3)oc2c1", "Number": 7}

----------
- Test method notes: Liver microsome metabolic stability, HLM
- Type: in vitro ADME
- Test conditions: HLM (first of two values), percent remaining at 60 min, 1 μM compound, 0.25 mg/mL protein, 1 mM NADPH
Reported Met Stab % (60 mins HLM/MLM) is given for each of the following compounds.
Property: Met Stab % (60 mins HLM/MLM)

{"Compound": "Cn1c(-c2ccc(-c3ccccc3F)o2)nc2c(F)cccc21 [VPC-18-31]", "Result": "17%"}
{"Compound": "Cn1c(-c2ccc(-c3ccccc3)o2)nc2ccc(Cl)cc21 [VPC-18-42]", "Result": "15%"}
{"Compound": "O=[N+]([O-])c1ccc2nc(-c3ccc(-c4ccccc4F)o3)[nH]c2c1 [VPC-18-32]", "Result": "20%"}
{"Compound": "Cc1c(-c2csc(-c3ccco3)n2)oc2ccccc12 [VPC-18-53]", "Result": "39%"}
{"Compound": "Cn1c(-c2csc(-c3ccccc3F)n2)nc2ccc(F)cc21 [VPC-18-45]", "Result": "35%"}
{"Compound": "c1ccc2c(c1)CCC2c1cnn(-c2nc3ccccc3s2)c1 (centres unmarked) [VPC-7-43]", "Result": "20%"}
{"Compound": "Cn1c(-c2ccc(-c3ccccc3)o2)nc2ccc(S(N)(=O)=O)cc21 [VPC-18-47]", "Result": "54%"}
{"Compound": "O=[N+]([O-])c1ccc2nc(-c3csc(-c4ccco4)n3)[nH]c2c1 [VPC-18-48]", "Result": "9%"}
{"Compound": "c1ccc(-c2nc(-c3cc4ccccc4o3)cs2)cc1 [VPC-18-33, 4-(Benzofuran-2-yl)-2-phenylthiazole]", "Result": "30%"}
{"Compound": "COc1ccccc1-c1ccc(-c2nc3ccccc3n2C)o1 [VPC-18-35]", "Result": "4%"}
{"Compound": "c1ccc2c(c1)CCC2c1ccc(-c2nc3ccccc3s2)o1 (centres unmarked) [VPC-7-44]", "Result": "62%"}
{"Compound": "CCn1c(-c2ccc(-c3ccccc3)o2)nc2ccccc21 [VPC-18-36]", "Result": "15%"}
{"Compound": "FC(F)(F)c1ccc2cc(-c3csc(-c4ccco4)n3)oc2c1 [VPC-18-51]", "Result": "42%"}
{"Compound": "Cn1c(-c2ccc(-c3ccc(F)cc3F)o2)nc2ccccc21 [VPC-18-41]", "Result": "0/0%"}

----------
- Test method notes: Liver microsome metabolic stability, HLM
- Format: in vitro ADME
- Test conditions: human, liver microsomes, pH 7.4; HLM (first of two values), 1 μM compound, 0.25 mg/mL protein; read-out: T1/2 in (mins HLM/MLM)
Mark met only for half-life at 1 µM values smaller than 30 min; exact matches and larger values are not met.

{"Compound": "FC(F)(F)c1ccc2cc(-c3csc(-c4ccco4)n3)oc2c1 [VPC-18-51]", "Label class": "not met"}
{"Compound": "O=[N+]([O-])c1ccc2nc(-c3csc(-c4ccco4)n3)[nH]c2c1 [VPC-18-48]", "Label class": "met"}
{"Compound": "Cn1c(-c2ccc(-c3ccccc3F)o2)nc2c(F)cccc21 [VPC-18-31]", "Label class": "met"}
{"Compound": "Cn1c(-c2csc(-c3ccccc3F)n2)nc2ccc(F)cc21 [VPC-18-45]", "Label class": "not met"}
{"Compound": "Cn1c(-c2ccc(-c3ccccc3)o2)nc2ccc(S(N)(=O)=O)cc21 [VPC-18-47]", "Label class": "not met"}
{"Compound": "COc1ccccc1-c1ccc(-c2nc3ccccc3n2C)o1 [VPC-18-35]", "Label class": "met"}
{"Compound": "Cc1c(-c2csc(-c3ccco3)n2)oc2ccccc12 [VPC-18-53]", "Label class": "not met"}
{"Compound": "O=[N+]([O-])c1ccc2nc(-c3ccc(-c4ccccc4F)o3)[nH]c2c1 [VPC-18-32]", "Label class": "met"}
{"Compound": "CCn1c(-c2ccc(-c3ccccc3)o2)nc2ccccc21 [VPC-18-36]", "Label class": "met"}
{"Compound": "Cn1c(-c2ccc(-c3ccccc3)o2)nc2ccc(Cl)cc21 [VPC-18-42]", "Label class": "met"}
{"Compound": "c1ccc2c(c1)CCC2c1ccc(-c2nc3ccccc3s2)o1 (stereo not shown) [VPC-7-44]", "Label class": "not met"}
{"Compound": "c1ccc2c(c1)CCC2c1cnn(-c2nc3ccccc3s2)c1 (stereo not shown) [VPC-7-43]", "Label class": "met"}
{"Compound": "c1ccc(-c2nc(-c3cc4ccccc4o3)cs2)cc1 [VPC-18-33, 4-(Benzofuran-2-yl)-2-phenylthiazole]", "Label class": "not met"}

Data provenance is patent US20220106304A1.
